molecular target: MT3 melatonin receptor (Mesocricetus auratus)
Sequence (A0ABM2YAB8 1-231): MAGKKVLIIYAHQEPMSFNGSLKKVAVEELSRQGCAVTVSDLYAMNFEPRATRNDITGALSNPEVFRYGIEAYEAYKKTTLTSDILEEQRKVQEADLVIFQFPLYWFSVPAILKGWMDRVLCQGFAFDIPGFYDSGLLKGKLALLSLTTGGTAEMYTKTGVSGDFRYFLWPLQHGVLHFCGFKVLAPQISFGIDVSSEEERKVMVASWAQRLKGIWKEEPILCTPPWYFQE
Each entry below lists one item and its recorded IC50 value.
metricName: IC50

compound	targetOfAssay	result
Nc1nc(-c2cccnc2)c(-c2ccncc2)cc1Br [Example 22]	MT3 melatonin receptor (Mesocricetus auratus)	140 nM
Nc1nc(-c2cccnc2)c(-c2ccncc2F)cc1Cl [Example 23]	MT3 melatonin receptor (Mesocricetus auratus)	98 nM

====

target: UniProtKB P29274
Sequence (P29274 whole entry): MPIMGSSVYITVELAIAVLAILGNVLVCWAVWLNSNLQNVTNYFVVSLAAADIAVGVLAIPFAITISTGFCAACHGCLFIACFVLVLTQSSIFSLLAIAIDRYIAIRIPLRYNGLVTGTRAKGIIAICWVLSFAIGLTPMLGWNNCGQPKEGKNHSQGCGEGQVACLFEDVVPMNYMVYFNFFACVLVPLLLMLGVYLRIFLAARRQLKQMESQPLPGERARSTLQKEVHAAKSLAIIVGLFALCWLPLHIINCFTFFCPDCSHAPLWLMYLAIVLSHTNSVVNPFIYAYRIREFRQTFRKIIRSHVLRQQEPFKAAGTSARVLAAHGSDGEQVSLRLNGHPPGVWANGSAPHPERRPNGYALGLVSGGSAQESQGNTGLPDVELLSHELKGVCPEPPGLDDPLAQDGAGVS
Each entry below lists one item and its recorded Ki value.

smilesText	qualifierSymbol	Ki / µM
Nc1nc(-c2cccnc2)c(-c2ccncc2F)cc1Cl	=	4.8
COc1ccc(-c2nc(N)c(Cl)cc2-c2ccncc2F)cn1	>	5

====

Each entry below lists one item and its recorded pKi value.
target: adenosine A2B receptor (Homo sapiens (Human), UniProt P29275); assay: Adenosine A2B receptor subtype competition radioligand binding assay ([3H]DPCPX); conditions: human recombinant receptor (HEK-293 cells), [3H]DPCPX radioligand; read-out: hA2B, Ki
Sequence (P29275 whole entry): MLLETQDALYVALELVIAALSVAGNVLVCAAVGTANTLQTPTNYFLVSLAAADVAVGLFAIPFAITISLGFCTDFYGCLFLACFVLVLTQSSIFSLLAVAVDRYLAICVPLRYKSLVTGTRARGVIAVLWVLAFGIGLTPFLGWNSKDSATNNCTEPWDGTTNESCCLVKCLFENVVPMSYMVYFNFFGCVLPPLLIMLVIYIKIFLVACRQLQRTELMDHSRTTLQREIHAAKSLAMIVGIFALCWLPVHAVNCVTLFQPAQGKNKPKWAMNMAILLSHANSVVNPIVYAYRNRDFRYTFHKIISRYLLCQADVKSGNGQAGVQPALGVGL
pKi: −log10 of the molar value.

smilesText	targetOfAssay	pKi
Nc1nc(-c2cccnc2)c(-c2ccncc2F)cc1Br	adenosine A2B receptor (Homo sapiens (Human), UniProt P29275)	7.43
Nc1nc(-c2ccncc2)c(-c2ccncc2F)cc1Br	adenosine A2B receptor (Homo sapiens (Human), UniProt P29275)	7.89
Nc1nc(-c2cncc(F)c2)c(-c2ccncc2F)cc1Cl	adenosine A2B receptor (Homo sapiens (Human), UniProt P29275)	6.82
Nc1nc(-c2ccncc2)c(-c2ccncc2F)cc1Cl	adenosine A2B receptor (Homo sapiens (Human), UniProt P29275)	7.92
Nc1nc(-c2cccnc2)c(-c2ccncc2F)cc1Cl	adenosine A2B receptor (Homo sapiens (Human), UniProt P29275)	7.62
Nc1nc(-c2cccnc2)c(-c2ccncc2)cc1Cl	adenosine A2B receptor (Homo sapiens (Human), UniProt P29275)	7.46
Nc1nc(-c2cccnc2)c(-c2ccncc2)cc1Br	adenosine A2B receptor (Homo sapiens (Human), UniProt P29275)	7.34
Nc1ccc(-c2ccncc2F)c(-c2ccncc2)n1	adenosine A2B receptor (Homo sapiens (Human), UniProt P29275)	6.83
COc1ccc(-c2nc(N)c(Cl)cc2-c2ccncc2F)cn1	adenosine A2B receptor (Homo sapiens (Human), UniProt P29275)	7.62

All values here come from patent US10253017B2.
